What logD at 24 h was measured for each of the following?
Experiment: 1-octanol/buffer distribution co-efficient, log D of compound at pH 7.4 at 298 K after 24 hrs by shake flask method
Type: physicochemical
Numbers only.

Give measured logD at 24 h for every item shown.
1. CSc1cccc(Nc2nc(CC(C)O)ns2)c1 (stereo not given)
2. Cc1ccc(Cl)cc1Nc1nc(CC(C)O)ns1 (stereo not given)
3. Cc1ccc(Nc2nc(CC(C)O)ns2)cc1Cl (stereo not given)
4. CC(Cc1nsc(Nc2ccc(Br)cc2)n1)NC1CC(C)(C)NC(C)(C)C1 (stereo not given)
5. CSc1cccc(Nc2nc(CC(C)NC3CC(C)(C)NC(C)(C)C3)ns2)c1 (stereo not given)
6. Cc1ccc(Nc2nc(CC(C)NC3CC(C)(C)NC(C)(C)C3)ns2)cc1Cl (stereo not given)
7. CC(O)Cc1nsc(Nc2ccc(Cl)c(Cl)c2)n1 (stereo not given)

Reply:
[1.97, 3.02, 3.02, 0.31, 0.643, 1.04, 2.79]

###

What Papp at 5000 µM was measured for each of the following?
Experiment: Apparent permeability of compound at 5 mM using permeapad barrier at pH 7.4 at 298 K by spectrophotometric method
Assay type: ADME
Details: not told
Give bare numbers, in ×10⁻⁶ cm/s.

Below, each entry is followed by its recorded Papp at 5000 µM result.
{"compound": "Cc1cc(Nc2nc(CC(C)NC3CC(C)(C)NC(C)(C)C3)ns2)no1 (stereo unspecified)", "measured-endpoint": "Papp at 5000 µM", "uom": "×10⁻⁶ cm/s", "endpoint-result": 3.4}
{"compound": "Cc1ccc(Nc2nc(CC(C)NC3CC(C)(C)NC(C)(C)C3)ns2)cc1Cl (stereo unspecified)", "measured-endpoint": "Papp at 5000 µM", "uom": "×10⁻⁶ cm/s", "endpoint-result": 13.5}
{"compound": "CC(Cc1nsc(Nc2ccc(F)c(Cl)c2)n1)NC1CC(C)(C)NC(C)(C)C1 (stereo unspecified)", "measured-endpoint": "Papp at 5000 µM", "uom": "×10⁻⁶ cm/s", "endpoint-result": 13.9}
{"compound": "CC(Cc1nsc(Nc2ccc(Cl)cc2)n1)NC1CC(C)(C)NC(C)(C)C1 (stereo unspecified)", "measured-endpoint": "Papp at 5000 µM", "uom": "×10⁻⁶ cm/s", "endpoint-result": 8.6}
{"compound": "Cc1ccc(Cl)cc1Nc1nc(CC(C)NC2CC(C)(C)NC(C)(C)C2)ns1 (stereo unspecified)", "measured-endpoint": "Papp at 5000 µM", "uom": "×10⁻⁶ cm/s", "endpoint-result": 14.4}
{"compound": "CC(Cc1nsc(Nc2ccc(Br)cc2)n1)NC1CC(C)(C)NC(C)(C)C1 (stereo unspecified)", "measured-endpoint": "Papp at 5000 µM", "uom": "×10⁻⁶ cm/s", "endpoint-result": 6.5}
{"compound": "CC(Cc1nsc(Nc2ccc(Cl)c(Cl)c2)n1)NC1CC(C)(C)NC(C)(C)C1 (stereo unspecified)", "measured-endpoint": "Papp at 5000 µM", "uom": "×10⁻⁶ cm/s", "endpoint-result": 9.8}
{"compound": "CC(Cc1nsc(Nc2ccc(F)cc2)n1)NC1CC(C)(C)NC(C)(C)C1 (stereo unspecified)", "measured-endpoint": "Papp at 5000 µM", "uom": "×10⁻⁶ cm/s", "endpoint-result": 8.7}

Give measured Papp at 5000 µM for every item shown.
1. Cc1ccc(Nc2nc(CC(C)NC3CC(C)(C)NC(C)(C)C3)ns2)cc1 (stereo unspecified)
2. CSc1cccc(Nc2nc(CC(C)NC3CC(C)(C)NC(C)(C)C3)ns2)c1 (stereo unspecified)
3. CC(Cc1nsc(NC2CC2)n1)NC1CC(C)(C)NC(C)(C)C1 (stereo unspecified)

Reply:
12.2
10.1
5.4
